biological target: His-AKT (Full Length) (Homo sapiens (Human), UniProt P31749); assay: AKT enzyme assay; type: biochemical; conditions: read-out: IC50 AKT
Sequence (P31749 whole entry): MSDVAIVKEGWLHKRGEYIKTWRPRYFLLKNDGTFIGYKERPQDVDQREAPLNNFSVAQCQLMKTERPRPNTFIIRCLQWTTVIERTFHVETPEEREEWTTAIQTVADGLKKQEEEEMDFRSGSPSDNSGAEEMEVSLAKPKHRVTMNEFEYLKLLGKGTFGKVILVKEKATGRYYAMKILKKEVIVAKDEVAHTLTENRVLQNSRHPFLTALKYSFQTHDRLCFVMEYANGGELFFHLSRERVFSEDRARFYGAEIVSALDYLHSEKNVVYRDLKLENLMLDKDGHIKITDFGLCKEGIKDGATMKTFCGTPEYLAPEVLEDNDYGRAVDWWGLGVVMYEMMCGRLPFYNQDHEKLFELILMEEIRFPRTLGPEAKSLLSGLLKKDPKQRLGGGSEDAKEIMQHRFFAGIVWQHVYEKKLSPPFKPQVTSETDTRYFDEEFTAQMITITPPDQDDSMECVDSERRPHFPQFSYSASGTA
The entries below are paired with their reported pIC50.
In plain terms, pIC50 is the concentration in mol/L turned into minus its base-10 logarithm.

{"molecule": "N#Cc1c(N)ncnc1N1CCC(c2nc(-c3ccoc3)cn2CCN2CCC2)CC1 [Compound 129]", "readoutKind": "pIC50", "testResult": 6.60}
{"molecule": "Cn1cc(-c2ccc(F)c(C(F)(F)F)c2)nc1C1CCN(c2ncncc2Br)CC1 [Compound 41]", "readoutKind": "pIC50", "testResult": 5.85}
{"molecule": "CCc1c(N)ncnc1N1CCC(c2nc(-c3ccc(C(F)(F)F)c(F)c3)cn2CCN2CC[C@@H](F)C2)CC1 [Compound 246]", "readoutKind": "pIC50", "testResult": 7.60}

Endpoint output: pIC50 of N#Cc1c(N)ncnc1N1CCC(c2nc(-c3ccc(F)c(C(F)(F)F)c3)cn2CCN2CCCC2)CC1 [Compound 305] . Value?
8.49

Endpoint output: pIC50 of CC(C)(C)NCCn1cc(-c2ccc(F)c(C(F)(F)F)c2)nc1C1CCN(c2ncnc(N)c2C(N)=O)CC1 [Compound 377] . Value?
8.01

Endpoint output: pIC50 of Cn1cc(-c2ccc(F)c(C(F)(F)F)c2)nc1C1CCN(c2ncnc(N)c2-c2cccc(C#N)c2)CC1 [Compound 15] . Value?
6.82

Endpoint output: pIC50 of Cc1cc(-c2cn(CCN3CCCC3)c(C3CCN(c4ncnc(N)c4OC(C)C)CC3)n2)ccc1F [Compound 299] . Value?
8.05

---

The entries below are paired with their reported IC50.
Target: P70S6K (T412E mutant) (Homo sapiens (Human), UniProt P23443, T412E)
Sequence (P23443 whole entry T412E): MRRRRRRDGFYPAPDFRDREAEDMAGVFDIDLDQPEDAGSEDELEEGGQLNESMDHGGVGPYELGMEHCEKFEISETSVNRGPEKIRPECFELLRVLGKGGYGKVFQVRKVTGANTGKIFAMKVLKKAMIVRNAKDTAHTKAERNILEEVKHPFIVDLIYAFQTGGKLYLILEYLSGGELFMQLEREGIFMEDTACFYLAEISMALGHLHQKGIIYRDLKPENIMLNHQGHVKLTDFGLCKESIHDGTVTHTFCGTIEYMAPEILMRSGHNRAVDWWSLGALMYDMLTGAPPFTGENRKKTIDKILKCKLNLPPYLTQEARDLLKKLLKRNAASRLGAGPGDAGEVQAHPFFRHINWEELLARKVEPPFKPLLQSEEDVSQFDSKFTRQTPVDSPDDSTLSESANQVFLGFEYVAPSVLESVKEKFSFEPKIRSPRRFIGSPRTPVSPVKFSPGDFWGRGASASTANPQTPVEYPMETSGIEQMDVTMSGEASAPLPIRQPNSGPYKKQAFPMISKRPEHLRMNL
Assay: P70S6K enzyme assay
Assay type: biochemical
Details: read-out: IC50 p70S6K
Protocol: P70S6K inhibitor compounds are diluted and plated in 96 well plates. […] The reaction is incubated for 90 min at 25° C., before the addition of 10 mM EDTA to stop the reaction. The proportion of substrate and product (phosphorylated) peptide is analysed on a Caliper Life Sciences Lab Chip 3000, using a pressure of −1.4 psi, and upstream and downstream voltages of −3000 and −700 respectively. Product peaks are resolved before substrate peaks on the resulting chromatograms.
Kindly provide the numeric value in nM only, without the unit symbol.

{"compound": "Cc1cc(-c2cn(CCO)c(C3CCN(c4ncnc(N)c4-c4cn[nH]c4)CC3)n2)ccc1F [Compound 160]", "testResult": 6.7}
{"compound": "CCc1c(N)ncnc1N1CCC(c2nc(-c3ccc(F)c(C(F)(F)F)c3)cn2C[C@@H]2CCN2)CC1 [Compound 152]", "testResult": 5.2}
{"compound": "Nc1ncnc(N2CCC(c3nc(-c4ccnc(C(F)(F)F)c4)cn3CCNCCCCl)CC2)c1Br [Compound 127]", "testResult": 1}

Now consider the entry below.
Endpoint output: IC50 of CCC(C)(C)NCCn1cc(-c2ccc(F)c(C(F)(F)F)c2)nc1C1CCN(c2ncnc(N)c2C(N)=O)CC1 [Compound 388] . Value?
2

---

molecular target: P70S6K (T412E mutant) (Homo sapiens (Human), UniProt P23443, T412E); experiment: P70S6K enzyme assay; format: biochemical; conditions: read-out: IC50 p70S6K
readoutKind: IC50 (nM)
Kindly provide the numeric value in nM only, without the unit symbol.

{"molecule": "Nc1ncnc(N2CCC(c3nc(-c4ccc(F)c(C(F)(F)F)c4)cn3CCN3CCC3)CC2)c1-c1ccc(F)cc1 [Compound 219]", "valueUnits": "nM", "IC50": 2.4}
{"molecule": "CNCCn1cc(-c2ccnc(C(F)(F)F)c2)nc1C1CCN(c2cc(N)ncn2)CC1 [Compound 167]", "valueUnits": "nM", "IC50": 130}
{"molecule": "NC(=O)c1c(N)ncnc1N1CCC(c2nc(-c3ccc(F)c(C(F)(F)F)c3)cn2CCNCC2CC2)CC1 [Compound 359]", "valueUnits": "nM", "IC50": 2.7}
{"molecule": "Cn1cc(-c2ccc(F)c(C(F)(F)F)c2)nc1C1CCN(c2ncnc(N)c2-c2cccc(C#N)c2)CC1 [Compound 15]", "valueUnits": "nM", "IC50": 11}
{"molecule": "COCCN(C)CCn1cc(-c2ccc(F)c(C(F)(F)F)c2)nc1C1CCN(c2ncnc(N)c2C(N)=O)CC1 [Compound 366]", "valueUnits": "nM", "IC50": 9.2}

Form field - read-out: IC50; system: P70S6K (T412E mutant) (Homo sapiens (Human), UniProt P23443, T412E); submitted item: Cn1cc(-c2ccc(F)c(C(F)(F)F)c2)nc1C1CCN(c2ncnc(N)c2-c2cncnc2)CC1 [Compound 48]
2.7

Form field - read-out: IC50; system: P70S6K (T412E mutant) (Homo sapiens (Human), UniProt P23443, T412E); submitted item: CC(C)c1cc(-c2cn(CCN3CCC3)c(C3CCN(c4ncnc(N)c4C#N)CC3)n2)ccn1 [Compound 317]
1.7

Form field - read-out: IC50; system: P70S6K (T412E mutant) (Homo sapiens (Human), UniProt P23443, T412E); submitted item: N#Cc1c(N)ncnc1N1CCC(c2nc(-c3ccnc(C4CC4)c3)cn2CCN2CCC2)CC1 [Compound 319]
1.7

---

biological target: UniProtKB P31749; assay: AKT enzyme assay; assay type: biochemical; details: read-out: IC50 AKT
readoutKind: IC50 (nM)
Kindly provide the numeric value in nM only, without the unit symbol.

Would you please look over these solved cases?
{"compound": "NC(=O)c1c(N)ncnc1N1CCC(c2nc(-c3ccc(F)c(C(F)(F)F)c3)cn2CCNC2CCCC2)CC1 [Compound 387]", "readoutKind": "IC50", "testResult": 8.4}
{"compound": "Nc1ncnc(N2CCC(c3nc(-c4ccc(F)c(C(F)(F)F)c4)cn3CCN3CCCC3)CC2)c1C=O [Compound 287]", "readoutKind": "IC50", "testResult": 1}
{"compound": "COc1c(N)ncnc1N1CCC(c2nc(-c3ccnc(C(F)(F)F)c3)cn2CCN2CCC2)CC1 [Compound 115]", "readoutKind": "IC50", "testResult": 21}

Now consider the entry below.
Endpoint output: IC50 of CCc1c(N)ncnc1N1CCC(c2nc(-c3ccc(F)c(F)c3)cn2CCN2CC3(COC3)C2)CC1 [Compound 198] . Value?
255

---

biological target: UniProt:P31749; assay: AKT enzyme assay; format: biochemical; settings: read-out: IC50 AKT
Threshold 80 nM. IC50 below it: Criterion met. IC50 at it or above: Criterion not met.

{"compound": "CCc1c(N)ncnc1N1CCC(c2nc(-c3ccnc(C(F)(F)F)c3)cn2CCN2CCC2)CC1 [Compound 105]", "categoryLabel": "Criterion met"}
{"compound": "CCc1c(N)ncnc1N1CCC(c2nc(-c3ccc(Cl)c(F)c3)cn2CCN2CCCC2)CC1 [Compound 251]", "categoryLabel": "Criterion met"}
{"compound": "CCN(CCn1cc(-c2ccc(F)c(C)c2)nc1C1CCN(c2ncnc(N)c2C(N)=O)CC1)C(C)C [Compound 351]", "categoryLabel": "Criterion met"}
{"compound": "Cc1cc(-c2cn(CCNC(C)(C)C)c(C3CCN(c4ncnc(N)c4-c4cn[nH]c4)CC3)n2)ccc1F [Compound 165]", "categoryLabel": "Criterion met"}
{"compound": "CC(C)Oc1c(N)ncnc1N1CCC(c2nc(-c3ccc(F)c(C(F)(F)F)c3)cn2CCN(C)C)CC1 [Compound 292]", "categoryLabel": "Criterion met"}
{"compound": "CS(=O)(=O)c1cccc(-c2cn(CCN3CCC3)c(C3CCN(c4ncnc(N)c4C(N)=O)CC3)n2)c1 [Compound 356]", "categoryLabel": "Criterion not met"}

Please state whether IC50 is below 80 nM for NC(=O)c1c(N)ncnc1N1CCC(c2nc(-c3ccoc3)cn2CCN2CCC2)CC1 [Compound 133]
Criterion not met

---

target: P70S6K (T412E mutant) (Homo sapiens (Human), UniProt P23443, T412E); assay: P70S6K enzyme assay; type: biochemical; conditions: read-out: IC50 p70S6K
The entries below are paired with their reported IC50.
Please state the number and follow it with the unit.

{"givenSmiles": "C=Cc1c(N)ncnc1N1CCC(c2nc(-c3ccc(F)c(F)c3)cn2CCN2CCCC2)CC1", "IC50": "1.4 nM"}
{"givenSmiles": "Cn1cc(-c2ccc(F)c(C(F)(F)F)c2)nc1C1CCN(c2ncnc(N)c2-c2ccccc2Cl)CC1", "IC50": "5.3 nM"}
{"givenSmiles": "CN1CC(Cn2cc(-c3ccc(F)c(C(F)(F)F)c3)nc2C2CCN(c3ncnc(N)c3C(N)=O)CC2)C1", "IC50": "4.9 nM"}
{"givenSmiles": "CCOc1c(N)ncnc1N1CCC(c2nc(-c3ccc(F)c(C)c3)cn2CCO)CC1", "IC50": "3.5 nM"}
{"givenSmiles": "Nc1ncnc(N2CCC(c3nc(-c4ccc(F)c(C(F)(F)F)c4)cn3CC3CNC3)CC2)c1Cl", "IC50": "4.8 nM"}

Form field - read-out: IC50; system: P70S6K (T412E mutant) (Homo sapiens (Human), UniProt P23443, T412E); submitted item: `Nc1ncnc(N2CCC(c3nc(-c4ccc(F)c(C(F)(F)F)c4)cn3CCN3CCCC3)CC2)c1-c1ccccc1F`
3.7 nM

Form field - read-out: IC50; system: P70S6K (T412E mutant) (Homo sapiens (Human), UniProt P23443, T412E); submitted item: `Nc1ncnc(N2CCC(c3nc(-c4ccc(F)c(C(F)(F)F)c4)cn3CCN3CCCCC3)CC2)c1Cl`
3.8 nM
